Readings of T/C for the listed compounds
System: P388 leukemia ip, CD2F1 mice, survival T/C
test: NCI In Vivo Anticancer Drug Screen. Data for tumor model P388 Leukemia (intraperitoneal) in CD2F1 (CDF1) mice
condition notes: endpoint: median survival time; dose: 200.0 mg/kg/injection; schedule: Q01DX009 (ip); vehicle: water; higher = longer survival
Inconclusive results and toxic doses are left out.

* CC(=O)OCc1cc[n+](C)cc1 | 93 % of control
* Cc1ccnc(NN=O)n1 | 104 % of control
* CNC(=O)ON(C(C)=O)C(=O)NC | 123 % of control
* O=C(O)CC[P+](c1ccccc1)(c1ccccc1)c1ccccc1 | 95 % of control

Proceeding to the next compound to report its T/C.
// sample `COC(=O)CCCNC(C)C` , its T/C was 99 % of control

* * *

Test system: P388 leukemia ip, CD2F1 mice, survival T/C
test: NCI In Vivo Anticancer Drug Screen. Data for tumor model P388 Leukemia (intraperitoneal) in CD2F1 (CDF1) mice
condition notes: endpoint: median survival time; dose: 100.0 mg/kg/injection; schedule: Q01DX009 (ip); vehicle: other; higher = longer survival
Inconclusive results and toxic doses are left out.
Readings of T/C for the listed molecules

Here are 5 molecules together with their reported answers.
• Nc1nc(N)c2[nH]cnc2n1 = 106 % of control
• O=C(CNOCc1ccccc1)OCc1ccccc1 = 97 % of control
• CC1(OC(=O)c2ccc(F)cc2)CC(C)(C)[N+]([O-])=N1 (stereo not given) = 118 % of control
• CN(C)Cc1cc(O)c(CN(C)C)cc1O = 119 % of control
• CC(C)(CO)NC(=O)c1ccc(Br)cc1 = 104 % of control

// sample CC1(OC(=O)c2ccc([N+](=O)[O-])cc2)CC(C)(C)[N+]([O-])=N1 (stereo not given) , its T/C was 100 % of control

// sample `Cc1nc(Cl)c(C)c(C(=O)O)n1` , its T/C was 98 % of control

// sample `O=C(COc1ccc(Cl)cc1)OC(=O)COc1ccc(Cl)cc1` , its T/C was 110 % of control

// sample `CCCCN(C)/N=N/c1[nH]ncc1C(=O)OCC` , its T/C was 120 % of control

// sample `COc1ccc(NC(=O)c2ccc3c(c2)OCO3)cc1` , its T/C was 95 % of control

* * *

Test system: P388 leukemia ip, CD2F1 mice, survival T/C
test: NCI In Vivo Anticancer Drug Screen. Data for tumor model P388 Leukemia (intraperitoneal) in CD2F1 (CDF1) mice
condition notes: endpoint: median survival time; dose: 6.25 mg/kg/injection; schedule: Q01DX005 (ip); vehicle: saline with Tween-80
Inconclusive results and toxic doses are left out. Rule for the calls: active = survival T/C of 150% or more; inactive = T/C below 125% in these data.
API: response.call in T for active, F for inactive

Look over these answered cases.
• COc1cc(/C=N/N2CC(=O)N(c3ccccc3)CC2=O)cc(OC)c1 = F
• OCC1OC(/C(N=Nc2ccccc2)=N\Nc2ccccc2)C(O)C1O (centres undefined) = F
• CN=C(NC)c1ccc(NC(=O)c2cc(C)cc(C(=O)Nc3ccc(C(=NC)NC)cc3)c2)cc1 = F
• O=[N+]([O-])c1ccccc1N=Nc1c(-c2ccccc2)nn(C(=S)N2CCOCC2)c1-c1ccccc1 = F

Req: Outcome logged for `CC(=O)NC#N.CCN(CC)CC.[CH-]1CCCCC1.[CH-]1CCCCC1.[CH-]1CCCCC1.[Cl-].[Sn+4]` in this assay:
Resp: F

* * *

Readings of T/C for the listed compounds
Test system: P388 leukemia ip, CD2F1 mice, survival T/C
test: NCI In Vivo Anticancer Drug Screen. Data for tumor model P388 Leukemia (intraperitoneal) in CD2F1 (CDF1) mice
condition notes: endpoint: median survival time; dose: 240.0 mg/kg/injection; schedule: Q01DX005 (ip); vehicle: saline with Tween-80; higher = longer survival
Toxic doses and inconclusive results are not listed.

* CCN(CC)c1ccc2cc(C(=O)c3cccs3)c(=O)oc2c1 | 103 % of control
* CCOC(=O)c1[nH]cnc1N | 104 % of control
* O=C(O)c1c(Cl)c(Cl)c(Cl)c(Cl)c1-c1c2ccc(=O)cc-2oc2cc(O)ccc12 | 96 % of control
* CC(=O)c1oc2cc([N+](=O)[O-])c3ccccc3c2c1C | 88 % of control
* NS(=O)(=O)c1ccc(NC(=O)Nc2cc(C(F)(F)F)ccc2Cl)cc1 | 87 % of control

// sample `COc1ccc(/C=N/NC(=S)NN)cc1` , its T/C was 98 % of control

// sample `CCOC(=O)c1c(Cl)c(CC)c(Cl)n2c1nc1ccccc12` , its T/C was 101 % of control

// sample COc1ccc(C2COc3c(ccc(O)c3O)C2)cc1 (configuration not stated) , its T/C was 99 % of control

// sample `O=[N+]([O-])c1ccc(/C=C/C=C\c2ccc(S(=O)(=O)F)cc2Cl)cc1` , its T/C was 95 % of control

// sample `O=C(c1ccccc1)N1OCCc2ccccc21` , its T/C was 96 % of control

// sample Oc1cc2c(cc1C(Nc1ccccn1)c1ccc3c(c1)OCO3)OCO2 (configuration not stated) , its T/C was 95 % of control

* * *

Tested on: P388 leukemia ip, CD2F1 mice, survival T/C
test: NCI In Vivo Anticancer Drug Screen. Data for tumor model P388 Leukemia (intraperitoneal) in CD2F1 (CDF1) mice
condition notes: endpoint: median survival time; dose: 200.0 mg/kg/injection; schedule: Q04DX002 (ip); vehicle: saline; higher = longer survival
Toxic doses and inconclusive results are not listed.
observed property: T/C

Here are 5 molecules together with their reported answers.
* CCOC(=O)Nc1cc(Cl)c([N+](=O)[O-])c([N+](=O)[O-])n1 | 103 % of control
* O=C1CCC2C(=O)OCC12 (stereo unspecified) | 94 % of control
* CC(C)c1cccc(C2(C)C(=O)c3ccccc3C2=O)c1 | 102 % of control
* CC(=O)Oc1cc(-c2ccccc2)oc1-c1ccccc1 | 106 % of control
* CC1(C)CC(OC(=S)S)CC(C)(C)N1O | 98 % of control

Value sought: T/C, system P388 leukemia ip, CD2F1 mice, survival T/C, item `N=C(N)c1ccc2nc(/C=C\c3nc4ccc(C(=N)N)cc4[nH]3)[nH]c2c1` . Result: 117 % of control

* * *

Test system: P388 leukemia ip, CD2F1 mice, survival T/C
test: NCI In Vivo Anticancer Drug Screen. Data for tumor model P388 Leukemia (intraperitoneal) in CD2F1 (CDF1) mice
condition notes: endpoint: median survival time; dose: 50.0 mg/kg/injection; schedule: Q01DX001 (ip); vehicle: Klucel (hydroxypropylcellulose) (HPC); higher = longer survival
Toxic doses and inconclusive results are not listed.
Readings of T/C for the listed molecules

Here are 5 molecules together with their reported answers.
- Cc1ccc(S(=O)(=O)N/N=C/c2c(Cl)n(C(=O)c3cccc(C)c3)c3ccccc23)cc1: 97 % of control
- O=C(O)c1ccc(N=Nc2ccc(N(CCCl)CCCl)cc2C(=O)O)cc1: 100 % of control
- COc1ccc(N=Cc2ccc(C(N)=S)cc2)cc1: 107 % of control
- COc1ccc(CNCCNCc2ccc(OC)cc2)cc1: 93 % of control
- CCOc1ccc(-n2c(=O)c(N=Nc3ccc(OC)cc3)c(O)n(-c3ccccc3Cl)c2=S)cc1: 97 % of control

Proceeding to the next molecule to report its T/C.
// sample CC/C(=C(/CC)c1ccc(OCC(=O)N/N=C2/C=C3CCC4C(CCC5(C)C(O)CCC45)C3(C)CC2)cc1)c1ccc(OCC(=O)N/N=C2\C=C3CCC4C(CCC5(C)C(O)CCC45)C3(C)CC2)cc1 (stereo unspecified) , its T/C was 95 % of control

* * *

Tested on: P388 leukemia ip, CD2F1 mice, survival T/C
test: NCI In Vivo Anticancer Drug Screen. Data for tumor model P388 Leukemia (intraperitoneal) in CD2F1 (CDF1) mice
condition notes: endpoint: median survival time; dose: 100.0 mg/kg/injection; schedule: Q04DX003 (ip); vehicle: Klucel (hydroxypropylcellulose) (HPC); higher = longer survival
Inconclusive results and toxic doses are left out.
observed property: T/C

Here are 10 molecules together with their reported answers.
* Cc1ccc(OP(=O)(Oc2ccc(C)cc2)Oc2ccc(C)cc2)cc1.Cc1ccc(OP(=O)(Oc2ccc(C)cc2)Oc2ccc(C)cc2)cc1.Cc1ccc(OP(=O)(Oc2ccc(C)cc2)Oc2ccc(C)cc2)cc1.Cc1ccc(OP(=O)(Oc2ccc(C)cc2)Oc2ccc(C)cc2)cc1.[O-][Cl+3]([O-])([O-])O.[Zn+2] | 98 % of control
* O=C1OCCOCCOCCOCCOC(=O)c2cccc1n2 | 105 % of control
* Clc1nnc(-c2ccccc2)s1 | 100 % of control
* Nc1cccc(SC2CC(=O)N(c3ccc4c(c3)OCO4)C2=O)c1 (stereo unspecified) | 92 % of control
* CCN(CC)C1CS(=O)(=O)OC2=C1Cc1ccccc1CC2 (stereo unspecified) | 99 % of control
* CCOC(=O)c1c(Nc2ccccc2O)oc2ccccc12 | 98 % of control
* COc1ccc(-c2csc(C)n2)cc1OC | 106 % of control
* O=C(O)COc1ccc(I)cc1I | 110 % of control
* Oc1ccccc1-c1nc(-c2ccccc2)c(-c2ccccc2)[nH]1 | 106 % of control
* CSc1ncc(CO)c(N)n1 | 90 % of control

Proceeding to the next molecule to report its T/C.
// sample `CCOP(O)(=S)OCC.[Ce]` , its T/C was 99 % of control
